Attribution: the RepoRT retention time repository (doi:10.1093/pcp/pcn183)

The compounds listed here are annotated with their LC retention time.
Assay: RP, Waters ACQUITY UPLC BEH C18, 38 °C, 0.24 mL/min; A: water + 0.1% formic acid, pH 3; B: acetonitrile + 0.1% formic acid, pH 3; gradient (min/%B) 0/0 0.25/0 0.4/9 0.8/17 1.9/100 2.1/100 2.11/0 3/0
Conditions: stereoisomer not certain
Where a name gives a salt, the structure may show the parent alone.
Write the answer as a number in min, unit excluded.

# compound, units-text, LC retention time
measured = [
    ("O=C[C@H](O)[C@H](O)COP(=O)(O)O [D-Erythrose-4-phosphate sodium salt]", "min", 0.16),
    ("O=C(O)C(O)c1cccc(O)c1 (centres undefined) [3-Hydroxymandelic acid]", "min", 1),
    ("CC1OC(Oc2c(-c3ccc(O)c(O)c3)oc3cc(O)cc(O)c3c2=O)C(O)C(O)C1O (centres undefined)", "min", 1.46),
]

Item under review: N[C@H](CC(=O)O)Cc1ccccc1 [L-beta-Homophenylalanine hydrochloride] . Reported LC retention time?
1.16

Input C=CCC(=NOS(=O)(=O)O)SC1OC(CO)C(O)C(O)C1O (centres undefined)
0.38

Field entry: NCC(=O)O
0.16

# iterate: O=C(O)C(O)Cc1ccc(O)cc1 (racemic) [DL-p-Hydroxyphenyllactic acid]
1.18

Item: O=C1O[C@H]([C@@H](O)CO)C(O)=C1O
1.15

Record: NCC(O)c1ccc(O)c(O)c1 (single isomer, unassigned; (-)) [(-)-Norepinephrine]
0.19

###

Assay: RP, Waters ACQUITY UPLC BEH C18, 38 °C, 0.24 mL/min; A: water + 0.1% formic acid, pH 3; B: acetonitrile + 0.1% formic acid, pH 3; gradient (min/%B) 0/0 0.25/0 0.4/9 0.8/17 1.9/100 2.1/100 2.11/0 3/0
Details: stereoisomer not certain
Counter-ions that a name gives are not always drawn.
If the reported LC retention time equals or exceeds 1 min, assign 1.0. If not, assign 0.0.

# compound, class-assignment
data = [
    ("CC(C)C(N)CC(=O)O [L-beta-homovaline-HCl]", 0.0),
    ("CN=C(N)N [Methylguanidine hydrochloride]", 0.0),
    ("COc1ccc(C2CC(=O)c3c(O)cc(OC4OC(CO)C(O)C(O)C4OC4OC(C)C(O)C(O)C4O)cc3O2)cc1 (centres undefined)", 1.0),
]

I'd appreciate it if you could say whether COc1cc(CC(=O)O)ccc1O has LC retention time at least equal to 1 min.
1.0

###

Experiment: RP, Waters ACQUITY UPLC BEH C18, 38 °C, 0.24 mL/min; A: water + 0.1% formic acid, pH 3; B: acetonitrile + 0.1% formic acid, pH 3; gradient (min/%B) 0/0 0.25/0 0.4/9 0.8/17 1.9/100 2.1/100 2.11/0 3/0
Settings: stereoisomer not certain
Counter-ions that a name gives are not always drawn.
Each entry below carries its recorded LC retention time.
Numeric answer only, unit min assumed.

The cases that follow already have their LC retention time on record.
# compound, LC retention time, min
measured = [
    ("O=c1c(OC2OCC(O)C(O)C2O)c(-c2ccc(O)c(O)c2)oc2cc(O)cc(O)c12 [Quercetin-3-D-xyloside]", 1.43),
    ("O=C(CCc1ccc(O)cc1)c1c(O)cc(O)cc1OC1OC(CO)C(O)C(O)C1O (configuration not stated) [Phloridzin]", 1.49),
    ("NCCc1c[nH]c2ccccc12 [3-(2-Aminoethyl)indole Hydrochloride]", 1.22),
    ("OCC1OC(Oc2cc(O)cc3[o+]c(-c4ccc(O)c(O)c4)c(OC4OC(CO)C(O)C(O)C4OC4OCC(O)C(O)C4O)cc23)C(O)C(O)C1O (configuration not stated)", 1.12),
    ("OCC1OC(Oc2cc3c(OC4OC(CO)C(O)C(O)C4O)cc(O)cc3[o+]c2-c2ccc(O)c(O)c2)C(O)C(O)C1O (configuration not stated) [cyanidin-3,5-di-O-glucoside chloride]", 1.11),
]

Recorded LC retention time for NC(CO)CC(=O)O [L-beta-homoserine [(R)-3-Amino-4-hydroxy-butyric acid (+)]] , please?
0.16

Another: c1ccc(NC[C@@H]2CCCN2)cc1 [(S)-(+)-2-(anilinomethyl)pyrrolidine]
1.27
